Data origin: paper PMC11589706

# target_system: the molecule itself
# experiment_summary: SEC; analytical size exclusion on Superdex 200 Increase 10/300 GL in 20 mM HEPES, pH 7.4, 100 mM NaCl, 4% glycerol; all truncations N-terminally fused to MBP
measure_name: binding result

| protein | measure_name | observed_result |
| --- | --- | --- |
| MBP-PML_(46–323) (domain or fragment, human, UniProt P29590 46-323, looked up, PML (TRIM19), human, residues 46-323; source: E. coli BL21(DE3), purified; not shown: MBP, N-terminal, kept) PASEEEFQFLRCQQCQAEAKCPKLLPCLHTLCSGCLEASGMQCPICQAPWPLGADTPALDNVFFESLQRRLSVYRQIVDAQAVCTRCKESADFWCFECEQLLCAKCFEAHQWFLKHEARPLAELRNQSVREFLDGTRKTNNIFCSNPNHRTPTLTSIYCRGCSKPLCCSCALLDSSHSELKCDISAEIQQRQEELDAMTQALQEQDSAFGAVHAQMHAAVGQLGRARAETEELIRERVRQVVAHVRAQERELLEAVDARYQRDYEEMASRLGRLDAVL | binding result | binds |
| MBP-PML_(46–362) (domain or fragment, human, UniProt P29590 46-362, looked up, PML (TRIM19), human, residues 46-362; source: E. coli BL21(DE3), purified; not shown: MBP, N-terminal, kept) PASEEEFQFLRCQQCQAEAKCPKLLPCLHTLCSGCLEASGMQCPICQAPWPLGADTPALDNVFFESLQRRLSVYRQIVDAQAVCTRCKESADFWCFECEQLLCAKCFEAHQWFLKHEARPLAELRNQSVREFLDGTRKTNNIFCSNPNHRTPTLTSIYCRGCSKPLCCSCALLDSSHSELKCDISAEIQQRQEELDAMTQALQEQDSAFGAVHAQMHAAVGQLGRARAETEELIRERVRQVVAHVRAQERELLEAVDARYQRDYEEMASRLGRLDAVLQRIRTGSALVQRMKCYASDQEVLDMHGFLRQALCRLRQE | binding result | binds |
| MBP-PML_(46–287) (domain or fragment, human, UniProt P29590 46-287, looked up, PML (TRIM19), human, residues 46-287; source: E. coli BL21(DE3), purified; not shown: MBP, N-terminal, kept) PASEEEFQFLRCQQCQAEAKCPKLLPCLHTLCSGCLEASGMQCPICQAPWPLGADTPALDNVFFESLQRRLSVYRQIVDAQAVCTRCKESADFWCFECEQLLCAKCFEAHQWFLKHEARPLAELRNQSVREFLDGTRKTNNIFCSNPNHRTPTLTSIYCRGCSKPLCCSCALLDSSHSELKCDISAEIQQRQEELDAMTQALQEQDSAFGAVHAQMHAAVGQLGRARAETEELIRERVRQVV | binding result | binds |
| MBP-PML_(46–391) (domain or fragment, human, UniProt P29590 46-391, looked up, source: E. coli BL21(DE3), purified; not shown: MBP, N-terminal, kept) PASEEEFQFLRCQQCQAEAKCPKLLPCLHTLCSGCLEASGMQCPICQAPWPLGADTPALDNVFFESLQRRLSVYRQIVDAQAVCTRCKESADFWCFECEQLLCAKCFEAHQWFLKHEARPLAELRNQSVREFLDGTRKTNNIFCSNPNHRTPTLTSIYCRGCSKPLCCSCALLDSSHSELKCDISAEIQQRQEELDAMTQALQEQDSAFGAVHAQMHAAVGQLGRARAETEELIRERVRQVVAHVRAQERELLEAVDARYQRDYEEMASRLGRLDAVLQRIRTGSALVQRMKCYASDQEVLDMHGFLRQALCRLRQEEPQSLQAAVRTDGFDEFKVRLQDLSSCIT | binding result | binds |
